Hello, the source for this data is patent US20160264649A1, in case you need it.

# targetSystem: HIV-1 Env of isolate MGRM-F1-023 (subtype F) (HIV-1)
# methodDescription: cell-based or functional assay

# binder, IC50 (neutralization), ng/mL
records = [
    ("PGT-128 (antibody, V domains shown) VH: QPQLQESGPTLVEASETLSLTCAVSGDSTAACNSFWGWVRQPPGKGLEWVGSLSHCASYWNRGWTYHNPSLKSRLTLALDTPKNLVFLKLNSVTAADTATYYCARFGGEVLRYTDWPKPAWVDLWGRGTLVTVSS VL: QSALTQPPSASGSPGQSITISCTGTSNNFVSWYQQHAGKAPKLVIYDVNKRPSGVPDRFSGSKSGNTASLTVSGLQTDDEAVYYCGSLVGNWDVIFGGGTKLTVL", 7),
    ("PGT-126 (antibody, V domains shown) VH: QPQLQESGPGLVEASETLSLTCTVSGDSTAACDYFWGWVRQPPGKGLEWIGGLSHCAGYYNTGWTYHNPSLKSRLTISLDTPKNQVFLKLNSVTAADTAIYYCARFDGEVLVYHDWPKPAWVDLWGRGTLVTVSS VL: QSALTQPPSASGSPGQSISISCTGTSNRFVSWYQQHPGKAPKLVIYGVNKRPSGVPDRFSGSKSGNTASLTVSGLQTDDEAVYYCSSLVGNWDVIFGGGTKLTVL", 9),
    ("PGT-135 (antibody, V domains shown) VH: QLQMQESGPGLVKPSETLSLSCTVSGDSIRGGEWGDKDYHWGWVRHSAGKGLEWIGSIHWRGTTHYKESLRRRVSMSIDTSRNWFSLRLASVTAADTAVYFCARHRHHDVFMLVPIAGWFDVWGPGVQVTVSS VL: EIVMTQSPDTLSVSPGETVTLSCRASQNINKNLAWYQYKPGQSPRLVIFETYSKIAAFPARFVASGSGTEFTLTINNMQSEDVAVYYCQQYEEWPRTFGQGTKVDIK", 88),
]
